Test system: mouse skin capillary permeability
experiment: Increment of the mouse skin capillary permeability (xylene, Evans blue)
Format: in vivo
assayConditions: gastro infusion 6.5 mg/kg (high dosage), OD at 590 nm, blank control 0.442 ± 0.240, lower is better
Parameter: OD (A). Scope: all listed entries.
State the answer as a number, implicitly in A.

Worked cases, OD (A) given:
recordSmiles | measuredOn | OD (A)
O=C1C=C(Nc2ccc(C(=O)O)cc2)C(Nc2ccc(C(=O)O)cc2)=NC1=O | mouse skin capillary permeability | 0.030
O=C1C=C(Nc2cccc(C(=O)O)c2)C(Nc2cccc(C(=O)O)c2)=NC1=O | mouse skin capillary permeability | 0.036

Looking for the measured OD (A) of CC(=O)c1cccc(NC2=CC(=O)C(=O)N=C2Nc2cccc(C(C)=O)c2)c1 , can you help?
0.019

Looking for the measured OD (A) of Cc1ccc(NC2=CC(=O)C(=O)N=C2Nc2ccc(C)cc2)cc1 , can you help?
0.051

Looking for the measured OD (A) of O=C1C=C(Nc2ccc(Cl)cc2)C(Nc2ccc(Cl)cc2)=NC1=O , can you help?
0.015
